All values here come from PubChem BioAssay (NCATS).

- Experiment Summary: qHTS profiling of the MIPE4 collection as inhibitors of Plasmodium falciparum (DD2) proliferation (AID 743345)
- Recorded Conditions: P. falciparum Dd2 in erythrocytes, SYBR Green DNA, 72 h; at 28.5 µM (top of the series) unless noted
Metric Name: parasite growth remaining, % of DMSO control (lower = more inhibition)

Compound	Observed
N#CC1(c2cccc(C(=O)Nc3cc(Oc4ccc5nc(NC(=O)C6CC6)sc5n4)ccc3F)c2Cl)CC1	28.8%
CC1(C)C(N(O)C(=O)Nc2ccc(Cl)cc2)N(c2ccc(Cl)cc2)C(=O)N1CC(=O)NN=CC=Cc1ccc([N+](=O)[O-])o1 (stereo not drawn)	9.75%
COc1cc(C=CC(=O)O)ccc1O	95%
O=C(O)C1=CO[C@@H](O[C@@H]2O[C@H](CO)[C@H](O)[C@H](O)[C@H]2O)[C@@H]2C(CO)=CC[C@H]12	96.1%
CO[C@H]1/C=C\O[C@@]2(C)Oc3c(C)c(O)c4c(O)c(c(C=NN5CCN(C6CCCC6)CC5)c(O)c4c3C2=O)NC(=O)C(C)=CC=C[C@H](C)[C@H](O)[C@@H](C)[C@@H](O)[C@@H](C)[C@H](OC(C)=O)[C@H]1C	6.13%

Q: What measured parasite growth remaining, % of DMSO control (lower = more inhibition) goes with O=c1[nH]c(=O)n([C@H]2C[C@@H](O)[C@@H](CO)O2)cc1C(F)(F)F ?
Result: 62%

Q: Need parasite growth remaining, % of DMSO control (lower = more inhibition), item Cc1ccc(NC(=O)c2ccc(CN3CCN(C)CC3)cc2)cc1Nc1nc(-c2cccnc2)cs1
Result: 12%

Q: # lookup: parasite growth remaining, % of DMSO control (lower = more inhibition) of CCN(CCO)CCCOc1ccc2c(Nc3cc(CC(=O)Nc4cccc(F)c4)[nH]n3)ncnc2c1
Result: 11.6%

====

- Experiment Summary: qHTS profiling for inhibitors of Plasmodium falciparum proliferation (AID 504749);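 also: 0% = DMSO vehicle and full inhibition = artemisinin control; nearly all actives have a fitted effect of over 60% in size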
- Recorded Conditions: P. falciparum in erythrocytes, SYBR Green DNA, 72 h; at 28.7 µM (top of the series); parasite line A
Inconclusive results are not listed.
Reported activity, negative = inhibition values are given for each entry in this list.
Numeric answer only, unit % assumed.

Here is how some compounds turned out for activity, negative = inhibition.
Compound	activity, negative = inhibition [%]
Cc1cc2nc3c(=O)[nH]c(=O)nc-3n(CC(O)C(O)C(O)CO)c2cc1C (configuration not stated)	-17.3
O=C1C(CCC(O)c2ccc(F)cc2)C(c2ccc(O)cc2)N1c1ccc(F)cc1 (configuration not stated)	3.97
COc1cc2c(cc1OC)CC(=O)N(CCCN(C)C[C@H]1Cc3cc(OC)c(OC)cc31)CC2	-2.12
CN1CCN2c3ncccc3Cc3ccccc3C2C1 (configuration not stated)	-2.79
N#CC(c1ccc(Cl)cc1)c1c(Cl)cc(-n2ncc(=O)[nH]c2=O)cc1Cl (configuration not stated)	-9.47
CS(=O)(=O)c1ccc(C2=C(c3ccccc3)C(=O)OC2)cc1	0.606

Moving on to another compound below.
Q: Which measured activity, negative = inhibition value corresponds to CC(C)CN(C[C@@H](O)[C@H](Cc1ccccc1)NC(=O)O[C@H]1CO[C@H]2OCC[C@H]21)S(=O)(=O)c1ccc(N)cc1 ?
Result: 1

====

- Experiment Summary: Quantitative High-Throughput drug screen in 47 multiple myeloma cell lines against the NCATS MIPE library collection: KHM11_PLB cell viability assay (AID 1918962); also: nearly all actives have a fitted effect of over 35% in size; also: potency is read from the fitted curve at half-maximal effect
- Recorded Conditions: KHM11 myeloma cell viability, CellTiter-Glo ATP luminescence, 48 h; series mostly up to 45.8 µM
Records with an inconclusive call do not appear. The source made the active and inactive calls. Calls follow the shape of the dose curve; as a rule, active = well fitted cell-killing curve with a large enough effect; inconclusive = small, poorly fitted or top-dose-only effect, or effect the other way; inactive = no such curve, though single readings can be large or run the other way.
Metric Name: Potency

Here are 8 compounds together with their reported answers.
Compound	Observed
CC(C)n1c(C=C[C@H](O)C[C@H](O)CC(=O)O)c(-c2ccc(F)cc2)c2ccccc21	14.8 µM (active)
Nc1nc(Cl)nc2c1ncn2[C@@H]1O[C@H](CO)[C@@H](O)[C@H]1F	0.0148 µM (active)
Cc1ccccc1-n1c(Cn2nc(-c3cccc(O)c3)c3c(N)ncnc32)nc2cccc(C)c2c1=O	18.7 µM (active)
NC(=O)c1noc([C@H](CCCC2CCCCC2)CC(=O)NO)n1	20.9 µM (active)
CCc1cccc(CC)c1NC(=O)N1Cc2[nH]nc(NC(=O)c3ccc(N4CCN(C)CC4)cc3)c2C1	16.6 µM (active)
O=C1NC(=O)C(c2cnc3ccccn23)=C1c1cn2c3c(cccc13)CN(C(=O)N1CCOCC1)CC2	0.001 µM (active)
NC1(C(=O)N[C@@H](CCO)c2ccc(Cl)cc2)CCN(c2ncnc3[nH]ccc23)CC1	1.87 µM (active)
C[C@@H](O)[C@H]1C(=O)N2C(C(=O)OCOC(=O)C(C)(C)C)=C(SC3CN(C4=NCCS4)C3)[C@H](C)[C@H]12	inactive

Q: Using the record for CC(=O)OCC(=O)[C@@]12OC(C)(C)O[C@H]1C[C@H]1[C@@H]3C[C@H](F)C4=CC(=O)C=C[C@]4(C)[C@@]3(F)[C@@H](O)C[C@@]12C , report its Potency.
Result: inactive

Q: Item CNC1[C@H](O)C(O[C@@H]2C(O)C(O[C@H]3O[C@H]([C@@H](C)NC)CC[C@H]3N)[C@@H](N)C[C@H]2N)OC[C@]1(C)O (stereo partly drawn) has what recorded Potency?
Result: inactive

Q: Field request: Potency | item: CN1CCC(COc2cnc(-c3cccc(Cn4nc(-c5cccc(C#N)c5)ccc4=O)c3)nc2)CC1
Result: 8.33 µM (active)

Q: What measured Potency goes with CC[C@@H]([C@H](C)O)n1ncn(-c2ccc(N3CCN(c4ccc(OCC5CO[C@@](Cn6cncn6)(c6ccc(F)cc6F)C5)cc4)CC3)cc2)c1=O (stereo partly drawn) ?
Result: inactive

Q: Entry CCCCC(C=O)NC(=O)C(CC(C)C)NC(=O)OCc1ccccc1 (stereo not drawn) has what Potency?
Result: inactive

Q: Potency for COc1cc2nc(-c3cc(F)ccc3O)nc(N[C@@H]3CNC[C@@H]3C(C)(C)O)c2cc1OC ?
Result: 0.0743 µM (active)

Q: Recorded Potency for N#CC(c1ccc(Cl)cc1)c1c(Cl)cc(-n2ncc(=O)[nH]c2=O)cc1Cl (stereo not drawn) , please?
Result: 0.372 µM (active)

Q: // Potency lookup, key: Cc1cccc2c1CC[C@H](CN1CCC(c3c(Cl)cccc3Cl)CC1)C[C@@H]2O
Result: 20.9 µM (active)

Q: Consider the compound shown here: CC=C1C2C=C(C)CC1(N)c1ccc(=O)[nH]c1C2 (stereo not drawn) What is its recorded Potency?
Result: inactive

Q: For the compound shown here, C=C1[C@H](n2cnc3c(=O)[nH]c(N)nc32)C[C@H](O)[C@H]1CO , give the reported Potency.
Result: 4.69 µM (active)

====

# reported Potency; entries follow
- Experiment Summary: Quantitative High-Throughput drug screen in 47 multiple myeloma cell lines against the NCATS MIPE library collection: MMM1_PLB cell viability assay (AID 1918976); also: potency is read from the fitted curve at half-maximal effect; nearly all actives have a fitted effect of over 35% in size
- Recorded Conditions: MMM1 myeloma cells viability, CellTiter-Glo, 48 h; series mostly up to 45.8 µM
Results filed as inconclusive are left out. The source made the active and inactive calls. Calls follow the shape of the dose curve; as a rule, active = well fitted cell-killing curve with a large enough effect; inconclusive = small, poorly fitted or top-dose-only effect, or effect the other way; inactive = no such curve, though single readings can be large or run the other way.

Compound	Potency
O=C(c1ccc(C=Cc2n[nH]c3ccccc23)cc1)N1CCNCC1	5.26 µM (active)
O=C(C=Cc1ccc(O)cc1)c1ccc(O)cc1O	5.9 µM (active)
CC1CCN(c2cc(N3CCN(C)CC3)ccc2NC(=O)c2cc(C#N)c[nH]2)CC1	23.5 µM (active)
CN1CCc2c(n(Cc3ccc(C(=O)NO)cc3)c3ccccc23)C1	14.8 µM (active)
O=C(Nc1cccc(C(F)(F)F)c1)Nc1cc(S(=O)(=O)NC2CC2)ccc1-c1ccsc1	18.7 µM (active)

Turning to the following compound.
Q: Record request: Potency value, item CNC1CCC(N(Cc2cccc(-c3ccncc3)c2)C(=O)c2sc3ccccc3c2Cl)CC1 (stereo unspecified)
Result: 20.9 µM (active)

====

- Experiment Summary: qHTS profiling for inhibitors of Plasmodium falciparum (3D7) proliferation (AID 743322);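 also: infected erythrocytes exposed to compound for 72 h before lysis; 100% = DMSO vehicle wells and 0% = 0.29 µM artemisinin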
- Recorded Conditions: P. falciparum 3D7 proliferation; at 28.7 µM (top of the series) unless noted
molecules and their reported remaining parasite growth % (stronger effect = lower value)
Answer in %, number only, no unit symbol.

Below, 3 molecules whose answers are already recorded.
Molecule	Endpoint Unit	Observed
O=C1NC(=O)C(c2cnc3ccccn23)=C1c1cn2c3c(cccc13)CN(C(=O)N1CCOCC1)CC2	%	49.3
Nc1ccc(-c2ccc3ncc4ccc(=O)n(-c5cccc(C(F)(F)F)c5)c4c3c2)cn1	%	-1.33
COc1c(C)cnc(Cn2cnc3c(Cl)nc(N)nc32)c1C	%	40.5

Turning now to a further record.
Q: I'd like to know its remaining parasite growth % (stronger effect = lower value). The molecule in question is CCNC(=O)c1noc(-c2cc(C(C)C)c(O)cc2O)c1-c1ccc(CN2CCOCC2)cc1
Result: 0.155
